All values here come from the Immune Epitope Database (IEDB).

# ASSAYED_SYSTEM: HLA-A*11:01
# TEST: IEDB peptide-MHC binding, purified MHC/competitive/fluorescence; filed as Kd, often an IC50 or EC50 that approximates it; bounds were set here for any values at or beyond the usual limits of such assays
# TEST_SETTINGS: source organism: Entamoeba dispar SAW760
RECORDED_METRIC: Kd

I have this sequence here, `SQYDPKELL` , and I need its recorded Kd. ≥ 5 µM

---

# ASSAYED_SYSTEM: HLA-B*18:01
# TEST: IEDB peptide-MHC binding, purified MHC/competitive/radioactivity; filed as Kd, often an IC50 or EC50 that approximates it; bounds were set here for any values at or beyond the usual limits of such assays
# TEST_SETTINGS: source organism: Lymphocytic choriomeningitis virus (strain WE)
RECORDED_METRIC: Kd

I have this sequence here, `KEPVESCPLM` , and I need its recorded Kd. ≥ 34.4 µM

---

# ASSAYED_SYSTEM: HLA-B*44:02
# TEST: IEDB peptide-MHC binding, purified MHC/competitive/radioactivity; filed as Kd, often an IC50 or EC50 that approximates it; bounds were set here for any values at or beyond the usual limits of such assays
# TEST_SETTINGS: source organism: Dengue virus 1 Singapore/S275/1990
RECORDED_METRIC: Kd (nM)
Answer with a number only, understood to be in nM.

I have this sequence here, `KEISNMLNI` , and I need its recorded Kd. 74.6

---

# ASSAYED_SYSTEM: HLA-B*40:01
# TEST: IEDB peptide-MHC binding, purified MHC/direct/fluorescence; filed as Kd, often an IC50 or EC50 that approximates it; bounds were set here for any values at or beyond the usual limits of such assays
# TEST_SETTINGS: source organism: Homo sapiens
RECORDED_METRIC: Kd (nM)
Answer with a number only, understood to be in nM.

I have this sequence here, `EHAGVISVL` , and I need its recorded Kd. 364

---

# ASSAYED_SYSTEM: HLA-B*18:01
# TEST: IEDB peptide-MHC binding, purified MHC/direct/fluorescence; filed as Kd, often an IC50 or EC50 that approximates it; bounds were set here for any values at or beyond the usual limits of such assays
# TEST_SETTINGS: source organism: Bacillus anthracis
RECORDED_METRIC: Kd

I have this sequence here, `VTECKLIYY` , and I need its recorded Kd. ≥ 20 µM

---

# ASSAYED_SYSTEM: HLA-B*58:01
# TEST: IEDB peptide-MHC binding, purified MHC/direct/fluorescence; filed as Kd, often an IC50 or EC50 that approximates it; bounds were set here for any values at or beyond the usual limits of such assays
# TEST_SETTINGS: source organism: Camelpox virus M-96
RECORDED_METRIC: Kd

POLYMER_SEQUENCE | Kd
ETIEILRNY | ≥ 20 µM

// below: Kd requested for another sequence
I have this sequence here, `IFLIITKVF` , and I need its recorded Kd. ≥ 20 µM

---

# ASSAYED_SYSTEM: HLA-A*02:01
# TEST: IEDB peptide-MHC binding, purified MHC/competitive/fluorescence; bounds were set here for any values at or beyond the usual limits of such assays
# TEST_SETTINGS: source organism: Rattus norvegicus
RECORDED_METRIC: IC50 (µM)
Answer with a number only, understood to be in µM.

I have this sequence here, `SLLERGQQLGV` , and I need its recorded IC50. 0.0187
